# EC50 annotations
Test system: Leishmania infantum
Test: Antileishmanial activity against Sb 3 resistant Leishmania infantum LEM 3329 isolate intracellular amastigotes infected in human THP1 cells after 96 hrs by prolong-gold antifade-reagent/DAPI staining based assay
Format: functional, organism-based
Details: THP-1, 96 h
Number only, in nM; omit the unit.

Q: Requested read-out: EC50. Entry: C[C@@H]1[C@H](O)[C@@H](C)/C=C/C=C/C=C/C=C/C=C/C=C/C=C/[C@H](O[C@@H]2O[C@H](C)[C@@H](O)[C@H](N)[C@@H]2O)C[C@@H]2O[C@](O)(C[C@@H](O)C[C@@H](O)[C@H](O)CC[C@@H](O)C[C@@H](O)CC(=O)O[C@H]1C)C[C@H](O)[C@H]2C(=O)O
A: 180

Then there is this compound:
Q: Requested read-out: EC50. Entry: O=C(CCCCCCCCCCCCCCC[P+](c1ccccc1)(c1ccccc1)c1ccccc1)c1ccc(O)cc1O.[Br-]
A: 150

----------
Experiment: Plasma concentration in BALB/c mouse infected with Leishmania infantum LEM 3049 isolate promastigote at 1.5 mg/kg, po for 4 days by HPLC analysis
readoutType: concentration at 96 h

Q: Requested read-out: concentration at 96 h. Entry: O=C(CCCCCCCCCCCCCCC[P+](c1ccccc1)(c1ccccc1)c1ccccc1)c1ccc(O)cc1O.[Br-]
A: > 90 nM

----------
Assay: Half life in CD-1 mouse liver microsomes at 10 to 20 uM measured for 120 mins in presence of UDPGA by RP-HPLC analysis
Assay type: ADME, Microsome
readoutType: half-life at up to 20 µM

Q: Requested read-out: half-life at up to 20 µM. Entry: O=C(CCCCCCCCCCCCCCC[P+](c1ccccc1)(c1ccccc1)c1ccccc1)c1ccc(O)cc1O.[Br-]
A: < 30 min

----------
Experiment: Selectivity index, ratio of EC50 for cytotoxicity against human THP1 cells to EC50 for antileishmanial activity against Leishmania donovani MHOM/ET/67/HU3 amastigotes infected in human THP1 cells
Type: toxicity, cell-based
Conditions: read-out: Ratio EC50
readoutType: selectivity ratio
Kindly provide the number alone.

The examples below pair each entry with its known result.
Q: Requested read-out: selectivity ratio. Entry: CCCCCCCCCCCCCCCCOP(=O)([O-])OCC[N+](C)(C)C
A: 28.8

Q: Requested read-out: selectivity ratio. Entry: C[C@@H]1[C@H](O)[C@@H](C)/C=C/C=C/C=C/C=C/C=C/C=C/C=C/[C@H](O[C@@H]2O[C@H](C)[C@@H](O)[C@H](N)[C@@H]2O)C[C@@H]2O[C@](O)(C[C@@H](O)C[C@@H](O)[C@H](O)CC[C@@H](O)C[C@@H](O)CC(=O)O[C@H]1C)C[C@H](O)[C@H]2C(=O)O
A: 116

Q: Requested read-out: selectivity ratio. Entry: O=C(OCCCCCCCCCCCCCC[P+](c1ccccc1)(c1ccccc1)c1ccccc1)c1ccc(O)cc1O
A: 27.6

Then there is this compound:
Q: Requested read-out: selectivity ratio. Entry: Cc1cc(O)ccc1C(=O)OCCCCCCCCCCCCCC[P+](c1ccccc1)(c1ccccc1)c1ccccc1
A: 12.3

src = ChEMBL document CHEMBL4334518
